# system-tested: Adenylate cyclase type 1 (Homo sapiens, UniProt Q08828)
# Sequence (Q08828 whole entry): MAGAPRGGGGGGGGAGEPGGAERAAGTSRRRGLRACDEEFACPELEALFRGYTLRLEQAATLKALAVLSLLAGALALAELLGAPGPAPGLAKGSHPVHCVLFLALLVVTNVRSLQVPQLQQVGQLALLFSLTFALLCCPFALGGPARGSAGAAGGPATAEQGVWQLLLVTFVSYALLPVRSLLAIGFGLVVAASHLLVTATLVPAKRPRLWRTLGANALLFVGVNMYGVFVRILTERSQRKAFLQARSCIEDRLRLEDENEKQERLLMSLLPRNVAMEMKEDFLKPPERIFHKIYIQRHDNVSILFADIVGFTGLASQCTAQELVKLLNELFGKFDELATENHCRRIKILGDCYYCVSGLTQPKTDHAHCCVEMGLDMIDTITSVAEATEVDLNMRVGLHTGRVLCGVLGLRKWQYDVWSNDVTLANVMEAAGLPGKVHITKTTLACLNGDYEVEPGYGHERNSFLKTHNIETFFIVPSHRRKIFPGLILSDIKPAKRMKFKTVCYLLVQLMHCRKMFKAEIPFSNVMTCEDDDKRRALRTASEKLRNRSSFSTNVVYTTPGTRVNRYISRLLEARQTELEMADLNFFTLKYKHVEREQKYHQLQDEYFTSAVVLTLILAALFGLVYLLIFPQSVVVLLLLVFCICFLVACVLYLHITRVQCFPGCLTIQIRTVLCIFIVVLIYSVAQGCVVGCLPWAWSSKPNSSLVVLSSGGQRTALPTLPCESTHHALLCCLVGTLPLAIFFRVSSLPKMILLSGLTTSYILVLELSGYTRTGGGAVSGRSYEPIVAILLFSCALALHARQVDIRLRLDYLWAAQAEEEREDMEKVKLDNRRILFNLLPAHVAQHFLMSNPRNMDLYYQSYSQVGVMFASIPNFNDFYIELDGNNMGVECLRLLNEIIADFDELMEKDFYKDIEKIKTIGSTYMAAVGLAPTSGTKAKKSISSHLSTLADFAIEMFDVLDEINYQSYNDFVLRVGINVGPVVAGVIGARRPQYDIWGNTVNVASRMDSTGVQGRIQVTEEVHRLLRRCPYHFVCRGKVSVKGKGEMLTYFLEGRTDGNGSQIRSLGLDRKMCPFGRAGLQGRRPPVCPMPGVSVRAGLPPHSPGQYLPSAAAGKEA
# run-description: Conversion of [32P] ATP to [32P]-cyclic AMP mediated by adenylate cyclase 1
# Format: functional
# assay-setup: read-out: EC50
Each entry below carries its recorded EC50.
readout: EC50 (µM)

smiles-representation: C=C[C@@]1(C)CC(=O)[C@]2(O)[C@@]3(C)[C@@H](O)CCC(C)(C)[C@@H]3[C@H](OC(=O)NCCc3ccc(O)cc3)[C@H](O)[C@@]2(C)O1
measured: 0.63
--
smiles-representation: C=CCNC(=O)O[C@H]1[C@H]2C(C)(C)CC[C@H](O)[C@]2(C)[C@@]2(O)C(=O)C[C@](C)(C=C)O[C@]2(C)[C@H]1OC(C)=O
measured: 4.4
--
smiles-representation: C=C[C@@]1(C)CC(=O)[C@]2(O)[C@@]3(C)[C@@H](O)CCC(C)(C)[C@@H]3[C@H](OC(=O)NCCO)[C@H](O)[C@@]2(C)O1
measured: 3.6
